Measured Herbicidal action against [%] POLCO by item
Tested on: POLCO
Test protocol: Post-emergence herbicidal action against POLCO
Type: in vivo, Polygonum convolvulus
Condition: application rate 80 g/ha, rated visually about 3 weeks after treatment
Just the number in %, nothing appended.

# Molecule, Herbicidal action against [%] POLCO, %
rows = [
    ("COC(=O)[C@@H]1C=C[C@H](NC(=O)C2(C(F)(F)F)CC(c3cc(F)cc(C#N)c3)=NO2)C1 (single isomer, unassigned) [Example I-098]", 80),
    ("COC(=O)[C@@H]1C=C[C@H](NC(=O)C2(C(F)(F)F)CC(c3ccccc3)=NO2)C1 (stereo partly shown)", 80),
    ("C=CC1(C(=O)NC2C=CC(C(=O)O)C2)CC(c2cc(F)cc(F)c2)=NO1 (mixture of isomers) [Example I-037]", 90),
]

Now look at this one.
[Q] Any idea what its Herbicidal action against [%] POLCO is? The molecule is COC(=O)C(NC(=O)C1C=CC(NC(=O)C2(C)CC(c3cc(F)cc(F)c3)=NO2)C1)C(C)C (mixture of isomers)
[A] 90

====

Measured Herbicidal action against [%] POLCO by item
Tested on: POLCO
Test protocol: Post-emergence herbicidal action against POLCO
Assay type: in vivo, Polygonum convolvulus
Condition: application rate 80 g/ha, rated visually about 3 weeks after treatment
Just the number in %, nothing appended.

Solved cases below.
# Molecule, Herbicidal action against [%] POLCO [%]
records = [
    ("CCOC(=O)C1C=CC(NC(=O)C2(C)CC(c3cc(F)cc(C#N)c3)=NO2)C1 (mixture of isomers) [Example I-073]", 90),
    ("C=CC1(C(=O)NC2C=CC(C(=O)N3CCCO3)C2)CC(c2cc(F)cc(F)c2)=NO1 (centres unmarked) [II-28]", 80),
    ("CCOC(=O)C1C=CC(NC(=O)C2(C(F)(F)F)CC(c3cccc(C#N)c3)=NO2)C1 (mixture of isomers) [Example I-072]", 90),
    ("C=CC1(C(=O)N[C@H]2CC=C(C(=O)O)C2)CC(c2cc(F)cc(F)c2)=NO1 (some centres unmarked) [III-09]", 90),
    ("CC(C)(C)OC(=O)C1C=CC(NC(=O)C2(C(F)(F)F)CC(c3cc(F)cc(F)c3)=NO2)C1 (mixture of isomers) [Example I-066]", 80),
    ("C=CC1(C(=O)NC2C=CC(C(=O)OCc3ccccc3)C2)CC(c2cc(F)cc(F)c2)=NO1 (mixture of isomers) [Example I-033]", 100),
    ("CC(C)OC(=O)C1C=CC(NC(=O)C2(C(F)(F)F)CC(c3cc(F)cc(F)c3)=NO2)C1 (mixture of isomers) [Example I-064]", 90),
    ("CC(C)(C#N)NC(=O)C1C=CC(NC(=O)C2(C)CC(c3cc(F)cc(F)c3)=NO2)C1 (mixture of isomers) [II-10]", 90),
    ("CC1(C(=O)NC2C=CC(C(=O)O)C2)CC(c2cc(F)cc(C#N)c2)=NO1 (mixture of isomers) [Example I-075]", 90),
    ("O=C(OCCCl)[C@@H]1C=C[C@H](NC(=O)C2(C(F)(F)F)CC(c3ccccc3)=NO2)C1 (some centres unmarked) [Example I-025]", 100),
]

[Q] Any idea what its Herbicidal action against [%] POLCO is? The molecule is CC1(C(=O)N[C@H]2C=C[C@@H](C(=O)OCCCl)C2)CC(c2cc(F)cc(F)c2)=NO1 (some centres unmarked) [Example I-009]
[A] 90

[Q] Try the molecule CC1(C(=O)N[C@H]2C=C[C@@H](C(=O)N3CCCO3)C2)CC(c2cc(F)cc(F)c2)=NO1 (some centres unmarked) [II-06]
[A] 80

[Q] Try the molecule Cc1cc(C)cc(C2=NOC(C(=O)NC3C=CC(C(=O)OCC(F)(F)F)C3)(C(F)(F)F)C2)c1 (mixture of isomers) [Example I-057]
[A] 80

[Q] Try the molecule O=C(OCC(F)(F)F)[C@@H]1C=C[C@H](NC(=O)C2(C(F)(F)F)CC(c3ccccc3)=NO2)C1 (some centres unmarked) [Example I-030]
[A] 90

====

Tested on: ABUTH
Test protocol: Post-emergence herbicidal action against ABUTH
Type: in vivo, Abutilon theophrasti
Condition: application rate 80 g/ha, rated visually about 3 weeks after treatment
Measured Herbicidal action against [%] ABUTH by item
Just the number in %, nothing appended.

# Molecule, Herbicidal action against [%] ABUTH, %
rows = [
    ("COC(=O)C1C=CC(NC(=O)C2(C(F)(F)F)CC(c3cc(F)cc(F)c3)=NO2)C1 (mixture of isomers)", 90),
]

[Q] Any idea what its Herbicidal action against [%] ABUTH is? The molecule is CC(C)(C#N)NC(=O)C1C=CC(NC(=O)C2(C(F)(F)F)CC(c3cc(F)cc(F)c3)=NO2)C1 (mixture of isomers)
[A] 80

[Q] Try the molecule CCOC(=O)[C@@H]1C=C[C@H](NC(=O)C2(C(F)(F)F)CC(c3cc(C)cc(F)c3)=NO2)C1 (some centres unmarked)
[A] 90

[Q] Try the molecule N#Cc1cccc(C2=NOC(C(=O)NC3C=CC(C(=O)OCCCl)C3)(C(F)(F)F)C2)c1 (mixture of isomers)
[A] 90

====

Test system: AMARE
Test protocol: Pre-emergence herbicidal action against AMARE
Assay type: in vivo, Amaranthus retroflexus
Condition: application rate 80 g/ha
Measured Herbicidal action against [%] AMARE by item
Just the number in %, nothing appended.

Solved cases below.
# Compound, Unit of measure, Herbicidal action against [%] AMARE
measured = [
    ("CC(C)C(C#N)NC(=O)C1C=CC(NC(=O)C2(C)CC(c3cc(F)cc(F)c3)=NO2)C1 (mixture of isomers) [II-12]", "%", 90),
    ("CC1(C(=O)NC2CC=C(C(=O)NS(C)(=O)=O)C2)CC(c2cccc(F)c2)=NO1 (mixture of isomers) [IV-07]", "%", 80),
]

[Q] Any idea what its Herbicidal action against [%] AMARE is? The compound is COC(=O)[C@@H]1C=C[C@H](NC(=O)C2(C)CC(c3cccc(F)c3)=NO2)C1 (stereo partly shown) [Example I-004]
[A] 80

[Q] Try the compound CCONC(=O)[C@@H]1C=C[C@H](NC(=O)C2(C)CC(c3cccc(F)c3)=NO2)C1 (stereo partly shown) [II-04]
[A] 100

[Q] Try the compound CN(C)NC(=O)C1=CCC(NC(=O)C2(C)CC(c3cccc(F)c3)=NO2)C1 (mixture of isomers) [IV-06]
[A] 80

[Q] Try the compound CN(C)C(=O)C1=CCC(NC(=O)C2(C)CC(c3cccc(F)c3)=NO2)C1 (mixture of isomers) [IV-01]
[A] 90

[Q] Try the compound COC(=O)C1=CC[C@H](NC(=O)C2(C)CC(c3cccc(F)c3)=NO2)C1 (stereo partly shown) [III-04]
[A] 90

[Q] Try the compound CONC(=O)[C@@H]1C=C[C@H](NC(=O)C2(C)CC(c3cc(F)cc(F)c3)=NO2)C1 (stereo partly shown) [II-02]
[A] 100

[Q] Try the compound CCOC(=O)[C@@H]1C=C[C@H](NC(=O)C2(C)CC(c3cccc(F)c3)=NO2)C1 (stereo partly shown) [Example I-006]
[A] 100

====

Measured Herbicidal action against [%] ECHCG by item
Tested on: ECHCG
Test protocol: Post-emergence herbicidal action against ECHCG
Type: in vivo, Echinochloa crus-galli
Condition: application rate 80 g/ha, rated visually after about 3 weeks
Just the number in %, nothing appended.

Solved cases below.
# Molecule, Herbicidal action against [%] ECHCG / %
data = [
    ("N#Cc1cc(F)cc(C2=NOC(C(=O)NC3C=CC(C(=O)OCCCl)C3)(C(F)(F)F)C2)c1 (mixture of isomers)", 90),
    ("CC1(C(=O)NC2CC=C(C(=O)NS(C)(=O)=O)C2)CC(c2cccc(F)c2)=NO1 (mixture of isomers)", 80),
    ("C=CC1(C(=O)NC2C=CC(C(=O)OCc3ccccc3)C2)CC(c2cc(F)cc(F)c2)=NO1 (mixture of isomers)", 90),
]

Now look at this one.
[Q] Any idea what its Herbicidal action against [%] ECHCG is? The molecule is CCOC(=O)C1C=CC(NC(=O)C2(C(F)(F)F)CC(c3cccc(Cl)c3)=NO2)C1 (mixture of isomers)
[A] 90

====

Test system: POLCO
Test protocol: Post-emergence herbicidal action against POLCO
Format: in vivo, Polygonum convolvulus
Condition: application rate 80 g/ha, rated visually about 3 weeks after treatment
Protocol: [table] 2. Post-emergence herbicidal action against harmful plants and crop plant compatibility Seeds of monocotyledonous and dicotyledonous weeds and crop plants are placed in sandy loam in plastic or wood-fibre pots, covered with soil and cultivated in a greenhouse under controlled growth conditions. 2 to 3 weeks after sowing, the test plants are treated at the one-leaf stage. […]
Measured property: Herbicidal action against [%] POLCO (%)
Just the number in %, nothing appended.

# Compound, Unit of measure, Herbicidal action against [%] POLCO
measured = [
    ("N#Cc1cccc(C2=NOC(C(=O)NC3C=CC(C(=O)O)C3)(C(F)(F)F)C2)c1 (mixture of isomers) [Example I-085]", "%", 80),
    ("O=C(O)C1C=CC(NC(=O)C2(C3CC3)CC(c3cc(F)cc(F)c3)=NO2)C1 (stereo not drawn) [Example I-094]", "%", 90),
    ("CCOCCOC(=O)[C@@H]1C=C[C@H](NC(=O)[C@@]2(C)CC(c3cc(F)cc(F)c3)=NO2)C1 [Example I-093]", "%", 90),
    ("COC(=O)C1=CC[C@H](NC(=O)C2(C)CC(c3cccc(F)c3)=NO2)C1 (stereo partly drawn) [III-04]", "%", 80),
    ("CC(C)C(C#N)NC(=O)C1C=CC(NC(=O)C2(C(F)(F)F)CC(c3cc(F)cc(F)c3)=NO2)C1 (mixture of isomers) [II-35]", "%", 90),
]

[Q] Any idea what its Herbicidal action against [%] POLCO is? The compound is C=CC1(C(=O)NC2C=CC(C(=O)OC)C2)CC(c2cc(F)cc(F)c2)=NO1 (stereo not drawn) [Example I-012]
[A] 80

[Q] Try the compound C=CC1(C(=O)NC2C=CC(C(=O)NC(C(=O)OC)C(C)C)C2)CC(c2cc(F)cc(F)c2)=NO1 (single isomer, unassigned) [II-26]
[A] 80

[Q] Try the compound C=CC1(C(=O)NC2C=CC(C(=O)OCC)C2)CC(c2cc(F)cc(F)c2)=NO1 (stereo not drawn) [Example I-013]
[A] 90
